experimental_target: Muscarinic acetylcholine receptor M3 (Homo sapiens, UniProt P20309)
Sequence (P20309 whole entry): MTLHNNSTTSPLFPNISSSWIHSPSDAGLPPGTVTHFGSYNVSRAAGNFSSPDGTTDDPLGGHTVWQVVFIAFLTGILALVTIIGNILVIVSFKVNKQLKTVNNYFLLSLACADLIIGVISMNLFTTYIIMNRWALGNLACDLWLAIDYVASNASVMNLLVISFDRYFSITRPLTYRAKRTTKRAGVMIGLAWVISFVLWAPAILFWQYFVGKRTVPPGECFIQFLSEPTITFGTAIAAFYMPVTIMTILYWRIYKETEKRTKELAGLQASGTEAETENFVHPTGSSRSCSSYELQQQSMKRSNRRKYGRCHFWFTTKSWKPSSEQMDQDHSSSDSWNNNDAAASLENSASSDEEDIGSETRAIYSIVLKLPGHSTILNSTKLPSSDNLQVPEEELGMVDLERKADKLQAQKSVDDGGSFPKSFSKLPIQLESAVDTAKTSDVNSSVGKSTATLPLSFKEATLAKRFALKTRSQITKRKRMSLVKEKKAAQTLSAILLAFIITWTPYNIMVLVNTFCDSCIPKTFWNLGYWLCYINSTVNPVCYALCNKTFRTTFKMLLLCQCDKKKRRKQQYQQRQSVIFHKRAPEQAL
assay_overview: Agonist activity at human M3 receptor expressed in A9 L cells assessed as stimulation of phosphoinositide hydrolysis
quantity_kind: pEC50
Here pEC50 is given on a logarithmic scale as minus log10 of the concentration in mol/L.

Entry under test: CCCCCCOc1nsnc1C1=CCCN(C)C1 [XANOMELINE] . Its pEC50 was 4.60

* * *

Ki reference
experimental_target: Muscarinic acetylcholine receptor M1/M5 chimeric protein (Homo sapiens, UniProt P08912+P11229)
Sequence (P11229 whole entry, change not shown): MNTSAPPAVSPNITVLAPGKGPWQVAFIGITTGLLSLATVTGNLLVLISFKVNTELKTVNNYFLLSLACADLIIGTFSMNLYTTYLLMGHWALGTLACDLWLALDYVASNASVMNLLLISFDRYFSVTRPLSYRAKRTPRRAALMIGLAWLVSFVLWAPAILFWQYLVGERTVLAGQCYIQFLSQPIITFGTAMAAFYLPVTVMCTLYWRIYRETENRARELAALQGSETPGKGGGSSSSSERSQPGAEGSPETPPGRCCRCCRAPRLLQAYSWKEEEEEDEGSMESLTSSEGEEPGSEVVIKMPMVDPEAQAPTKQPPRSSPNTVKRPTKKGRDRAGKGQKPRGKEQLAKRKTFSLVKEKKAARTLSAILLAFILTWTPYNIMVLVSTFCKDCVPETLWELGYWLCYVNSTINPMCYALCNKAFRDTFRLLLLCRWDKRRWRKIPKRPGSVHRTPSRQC
Sequence (P08912 whole entry, change not shown): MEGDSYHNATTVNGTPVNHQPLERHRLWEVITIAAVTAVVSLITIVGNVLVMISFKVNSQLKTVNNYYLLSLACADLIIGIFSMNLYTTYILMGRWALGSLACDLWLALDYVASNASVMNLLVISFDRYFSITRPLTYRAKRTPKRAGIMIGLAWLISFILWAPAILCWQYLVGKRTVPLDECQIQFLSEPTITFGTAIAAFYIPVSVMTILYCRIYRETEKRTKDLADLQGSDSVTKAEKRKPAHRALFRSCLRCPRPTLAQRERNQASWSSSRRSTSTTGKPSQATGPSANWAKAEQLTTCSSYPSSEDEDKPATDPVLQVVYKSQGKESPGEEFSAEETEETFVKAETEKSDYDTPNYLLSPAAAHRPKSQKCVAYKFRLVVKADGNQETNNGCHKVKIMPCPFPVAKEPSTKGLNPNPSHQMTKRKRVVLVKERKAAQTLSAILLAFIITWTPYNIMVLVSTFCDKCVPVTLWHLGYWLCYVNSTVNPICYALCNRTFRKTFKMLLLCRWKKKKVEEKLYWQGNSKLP
assay_overview: Inhibition of [3H](R)-QNB binding to human M1/M5(o2o3) chimeric receptor expressed in A9 L cells
Type: cell-based, A9L
Just the number in nM, nothing appended.

COc1nsnc1OCCOCCOCCOCCOc1nsnc1C1=CCCN(C)C1    316

// below: Ki requested for another molecule
Entry under test: `CN1CCC=C(c2nsnc2OCCOCCOCCOCCOc2nsnc2C2=CCCN(C)C2)C1` . Its Ki was 100

* * *

experimental_target: Muscarinic acetylcholine receptor M1/M5 chimeric protein (Homo sapiens, UniProt P08912+P11229)
assay_overview: Agonist activity at human M1/M5(o3) chimeric receptor expressed in A9 L cells assessed as stimulation of phosphoinositide hydrolysis
Type: functional, cell-based, L929
pEC50 reference
Here pEC50 is given on a logarithmic scale as minus log10 of the concentration in mol/L.

COc1nsnc1OCCOCCOCCOCCOc1nsnc1C1=CCCN(C)C1    7.00

// below: pEC50 requested for another compound
Entry under test: `CN1CCC=C(c2nsnc2OCCOCCOCCOCCOc2nsnc2C2=CCCN(C)C2)C1` . Its pEC50 was 6.20

* * *

experimental_target: Muscarinic acetylcholine receptor M4 (Homo sapiens)
Sequence (P08173 whole entry): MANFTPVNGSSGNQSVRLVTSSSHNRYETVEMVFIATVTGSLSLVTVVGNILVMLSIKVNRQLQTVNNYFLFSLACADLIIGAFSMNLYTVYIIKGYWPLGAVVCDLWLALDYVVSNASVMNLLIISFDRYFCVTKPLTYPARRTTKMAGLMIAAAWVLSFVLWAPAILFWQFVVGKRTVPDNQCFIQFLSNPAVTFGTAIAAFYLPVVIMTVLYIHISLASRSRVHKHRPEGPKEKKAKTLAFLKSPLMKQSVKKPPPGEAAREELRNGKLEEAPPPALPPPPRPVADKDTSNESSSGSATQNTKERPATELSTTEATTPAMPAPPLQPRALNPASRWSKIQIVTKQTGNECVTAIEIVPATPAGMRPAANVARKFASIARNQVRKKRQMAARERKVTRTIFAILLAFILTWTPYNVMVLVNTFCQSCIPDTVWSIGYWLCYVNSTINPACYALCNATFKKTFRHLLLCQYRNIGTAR
Ki reference
Just the number in nM, nothing appended.

COc1nsnc1OCCOCCOCCOCCOCCOc1nsnc1C1=CCCN(C)C1    12.6

Entry under test: `CN1CCC=C(c2nsnc2OCCOCCOCCOCCO)C1` . Its Ki was 794

* * *

experimental_target: Muscarinic acetylcholine receptor M4 (Homo sapiens) (UniProt P08173)
assay_overview: Activity at human M4 receptor assessed as inhibition of forskolin-stimulated cAMP accumulation relative to carbachol
Assay type: functional
quantity_kind: Imax (%)
Just the number in %, nothing appended.

Examples with their reported Imax follow.
COc1nsc(OCCCOCCCOCCCOc2nsnc2C2=CCCN(C)C2)n1    130
COc1nsnc1OCCOCCOCCOCCOCCOc1nsnc1C1=CCCN(C)C1    37
CCCCCCOc1nsnc1C1=CCCN(C)C1 [XANOMELINE]    77
CN1CCC=C(c2nsnc2OCCOCCOCCOCCO)C1    110
COc1nsnc1OCCOCCOCCOCCOc1nsnc1C1=CCCN(C)C1    40

Entry under test: `COc1nsnc1OCCOCCOc1nsnc1C1=CCCN(C)C1` . Its Imax was 47

Entry under test: `COc1nsnc1OCCOCCOCCOc1nsnc1C1=CCCN(C)C1` . Its Imax was 100
